Every entry's value here was drawn from ChEMBL document CHEMBL1156829.

Tested on: Plasmodium falciparum
procedure_details: NOVARTIS: Inhibition of Plasmodium falciparum W2 (drug-resistant) proliferation in erythrocyte-based infection assay
Format: functional, organism-based
condition_notes: Plasmodium falciparum, W2; read-out: EC50
param class (str): category from EC50; see ranges bottom range (below 300 nM), center range (300 nM to below 900 nM), top range (900 nM or more)

Kindly identify the class of COc1ccc2[nH]c(=O)c(CN(C(=S)Nc3ccccc3OC)C3CCCC3)cc2c1 .
center range

Kindly identify the class of CC[n+]1c(/C=C2\C=C(C)CC(C)C2)sc2ccccc21 (stereo unspecified) .
top range

Kindly identify the class of COc1cc(NC(C)CCCN(Cc2ccc(N(C)C)cc2)S(=O)(=O)c2cccc3ccccc23)c2ncccc2c1 (stereo unspecified) .
center range

Kindly identify the class of COc1ccc2[nH]c3c(=O)n(C)cnc3c2c1 .
top range

Kindly identify the class of COC(=O)c1ccc(N2C(=O)C3C(C2=O)C2(c4ccccc4)C(=O)C3(c3ccccc3)C(c3ccc(OC)cc3)=C2c2ccc(OC)cc2)cc1 (stereo unspecified) .
top range

Kindly identify the class of COc1cc2c3cc1Oc1c(OC)c(OC)cc4c1C(Cc1ccc(O)c(c1)Oc1ccc(cc1)CC3N(C)CC2)N(C)CC4 (stereo unspecified) .
top range

Kindly identify the class of Cc1n(N)c2ccccc2[n+]1CC(=O)c1ccc([N+](=O)[O-])cc1 .
top range

Kindly identify the class of FC(F)(F)c1cccc(NC(=S)N2CCCC2c2ccncc2)c1 (stereo unspecified) .
center range

Kindly identify the class of O=C(Nc1ccc(-c2nc3ccc(-c4nc5ccc(NC(=O)c6ccccc6[N+](=O)[O-])cc5[nH]4)cc3[nH]2)cc1)c1ccccc1[N+](=O)[O-] .
top range

Kindly identify the class of O=C(Oc1ccc(N2C(=O)c3ccc([N+](=O)[O-])cc3C2=O)cc1)c1ccco1 .
top range

Kindly identify the class of COC(=O)C1=C(C)NC2=C(C(=O)CC(c3ccccc3Cl)C2)C1c1ccc([N+](=O)[O-])cc1 (stereo unspecified) .
bottom range

Kindly identify the class of CCOc1ccc(NC(=O)c2ccc(F)c(S(=O)(=O)NC3CCCCCC3)c2)cc1 .
bottom range

Kindly identify the class of Cc1cccc(Nc2c3c(c(C#N)c4nc5ccccc5n24)CCC3)c1 .
bottom range

Kindly identify the class of Oc1c(C(Nc2ccccn2)c2cccc(Cl)c2Cl)ccc2cccnc12 (stereo unspecified) .
bottom range

Kindly identify the class of COc1ccc(-c2cn3c([n+]2-c2ccccc2)SCC3)cc1 .
center range

Kindly identify the class of CCOC(=O)C[n+]1cc(CC)sc1N .
top range

Kindly identify the class of CCN(CC)[P+](N(C)C[Si](C)(C)C)(N(CC)CC)N(CC)CC .
center range

Kindly identify the class of COc1ccc(-c2cnc3ccc(NCc4cccc(Cl)c4)nn23)cn1 .
top range

Kindly identify the class of COc1cc(CNc2ccc(N3CCCCC3)cc2)cc(Cl)c1OCc1ccc(F)cc1 .
top range

Kindly identify the class of NC(=O)/C(=C\c1cccc2ccccc12)NC(=O)c1ccccc1 .
top range

Kindly identify the class of O=C(CN1CCN(S(=O)(=O)c2cccc([N+](=O)[O-])c2)CC1)Nc1ccc(OCc2ccccc2)cc1 .
top range

Kindly identify the class of CN(C)C(=O)NCCCCNc1ccnc2cc(Cl)ccc12 .
center range

Kindly identify the class of C=CCN1C(=O)/C(=C\c2ccccc2)C(C(=O)OC)=C1C .
bottom range

Kindly identify the class of CCCCN(CCCC)C(=O)Cn1ccc(=N)c2ccccc21 .
bottom range

Kindly identify the class of O=C(CN1CCN(C(=O)c2ccco2)CC1)Nc1cc(C(F)(F)F)ccc1Cl .
top range

Kindly identify the class of Cc1cc(C(=O)Nc2cnn(Cc3ccc(Cl)cc3Cl)c2)no1 .
center range

Kindly identify the class of CN(C)c1ccc(/C=C2\SC(=Nc3ccc(O)cc3)NC2=O)cc1 .
center range

Kindly identify the class of C=CCNC(=O)c1ccc2c(c1)N=C(CC(C)c1ccccc1)N(CCCN1CCCC1=O)C2 (stereo unspecified) .
bottom range

Kindly identify the class of COc1ccccc1NC1=C(N2CCCCC2)C(=O)c2ccccc2C1=O .
bottom range

Kindly identify the class of c1ccc(Nc2ccnc(Nc3ccccc3)n2)cc1 .
top range

Kindly identify the class of COc1cc(C(=O)NC(c2ccc3c(c2)OCO3)c2cc(Cl)c3cccnc3c2O)cc(OC)c1OC (stereo unspecified) .
center range

Kindly identify the class of O=[N+]([O-])c1cccc(-c2ccc(C=NNc3nc4ccccc4[nH]3)o2)c1 .
center range

Kindly identify the class of CCN1CC=C(c2c[nH]c3ccccc23)CC1 .
center range

Kindly identify the class of C=CCNc1ncnc2c1c(-c1ccccc1)cn2-c1ccccc1 .
top range

Kindly identify the class of C[N+](C)(C)c1nc(N2CCOCC2)nc(N(c2ccccc2)c2ccccc2)n1 .
bottom range

Kindly identify the class of CC(=O)N(C1=C(N2CCOCC2)C(=O)c2ccccc2C1=O)c1cc(C)cc(C)c1 .
bottom range
